Each entry below lists one item and its recorded IC50 value.
- system.tested: human PDHK1 (hPDHK1) (Homo sapiens (Human), UniProt Q15118)
- Sequence (Q15118 29-436): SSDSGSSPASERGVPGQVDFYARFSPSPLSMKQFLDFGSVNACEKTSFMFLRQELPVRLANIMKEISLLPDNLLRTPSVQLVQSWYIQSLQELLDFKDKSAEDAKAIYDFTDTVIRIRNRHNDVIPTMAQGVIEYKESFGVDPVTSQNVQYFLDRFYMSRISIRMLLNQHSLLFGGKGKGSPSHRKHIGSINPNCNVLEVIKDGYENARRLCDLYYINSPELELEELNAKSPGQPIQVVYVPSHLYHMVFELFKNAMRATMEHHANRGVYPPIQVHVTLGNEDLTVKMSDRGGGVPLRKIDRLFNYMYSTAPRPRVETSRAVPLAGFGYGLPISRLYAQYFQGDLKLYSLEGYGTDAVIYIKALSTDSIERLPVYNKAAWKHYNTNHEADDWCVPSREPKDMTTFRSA
- method.description: Inhibitory action of PDHK1 activity in vitro (residual PDH activity after PDHK reaction)
- measurement.setup: PDH/hPDHK1 complex solution, PDHK reaction at room temperature for 45 min, NADH absorbance at 340 nm; read-out: hPDK1 IC50
property.name: IC50 (nM)

compound	system.tested	recorded.value
C[C@H]1CN(C(=O)c2ccc(C#N)c(-c3ccc(F)cn3)c2)Cc2cnc([C@@](C)(O)C(F)(F)F)n21 [Example 77]	human PDHK1 (hPDHK1) (Homo sapiens (Human), UniProt Q15118)	6
C[C@H]1CN(C(=O)c2nc3ccc(F)cc3o2)Cc2cnc([C@@](C)(O)C(F)(F)F)n21 [Example 2]	human PDHK1 (hPDHK1) (Homo sapiens (Human), UniProt Q15118)	12
C[C@H]1CN(C(=O)c2cc(C3CC3)n[nH]2)Cc2onc([C@@](C)(O)C(F)(F)F)c21 [Example 111]	human PDHK1 (hPDHK1) (Homo sapiens (Human), UniProt Q15118)	3
C[C@H]1CN(C(=O)c2c3cc(F)c(F)cc3nn2C)Cc2cnc([C@@](C)(O)C(F)(F)F)n21 [Example 9]	human PDHK1 (hPDHK1) (Homo sapiens (Human), UniProt Q15118)	7
C[C@H]1CN(C(=O)c2ccc(C#N)c(C3CC3)c2)Cc2cnc([C@@](C)(O)C(F)(F)F)n21 [Example 28]	human PDHK1 (hPDHK1) (Homo sapiens (Human), UniProt Q15118)	12
C[C@H]1CN(C(=O)c2cncc(-c3ccc(F)cc3C#N)c2)Cc2cnc([C@@](C)(O)C(F)(F)F)n21 [Example 72]	human PDHK1 (hPDHK1) (Homo sapiens (Human), UniProt Q15118)	7
